Data credit: patent US11098026B2

Provide the recorded IC50 for the entries that follow.
Target: human GPR91 receptor (Homo sapiens, UniProt Q9BXA5)
Construct: expressed in transfected cells; host or cells: CHO-K1 NFAT cells
Sequence (Q9BXA5 1-334): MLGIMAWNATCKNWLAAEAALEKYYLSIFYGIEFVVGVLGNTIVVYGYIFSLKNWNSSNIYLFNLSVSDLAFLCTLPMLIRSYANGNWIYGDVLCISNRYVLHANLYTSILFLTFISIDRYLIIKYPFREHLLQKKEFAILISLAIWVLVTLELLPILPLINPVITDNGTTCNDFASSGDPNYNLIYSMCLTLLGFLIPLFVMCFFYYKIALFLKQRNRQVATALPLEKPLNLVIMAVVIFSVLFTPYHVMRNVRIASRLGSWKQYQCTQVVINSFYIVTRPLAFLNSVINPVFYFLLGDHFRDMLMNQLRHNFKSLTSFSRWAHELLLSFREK
Assay: Human GPR91 calcium mobilization assay
Type: cell-based
Conditions: CHO-K1 NFAT cells over expressing human GPR91 receptor; Fluo4 AM; agonist sodium succinate; flex station; read-out: hGPR91 IC50 (μM)*

Output measured IC50 for this item: O=C(O)CCc1cccc(Oc2ccc(Oc3cccc4c3OCCO4)cc2C(F)(F)F)c1 [Compound A-11] > 10 µM

Output measured IC50 for this item: O=C(O)Cc1cccc(Oc2ccc(Oc3ccc(Cl)c4cnncc34)cc2C(F)(F)F)c1 [Compound A-4] < 5 µM

Output measured IC50 for this item: O=C(O)CCc1cccc(Oc2ccc(Oc3cccc4nccn34)cc2C(F)(F)F)c1 [Compound A-37] > 10 µM

Output measured IC50 for this item: O=C(O)CCc1cccc(Oc2ccc(Oc3cccc4cnccc34)cc2C(F)(F)F)c1 [Compound A-14] < 5 µM

Output measured IC50 for this item: O=C(O)Cc1cccc(Oc2ccc(Oc3ccc4nn(C5COC5)cc4c3)cc2C(F)(F)F)c1 [Compound A-24] > 10 µM

Output measured IC50 for this item: CN1CCc2cccc(Oc3ccc(Oc4cccc(CCC(=O)O)c4)c(C(F)(F)F)c3)c2C1 [Compound A-10] > 10 µM

Output measured IC50 for this item: O=C(O)Cc1cccc(Oc2ccc(Oc3ccc4c(ccn4CC(=O)O)c3)cc2C(F)(F)F)c1 [Compound A-32] > 10 µM

Output measured IC50 for this item: Cn1ncc2cccc(Oc3ccc(Oc4cccc(CC(=O)O)c4)c(C(F)(F)F)c3)c21 [Compound A-5] < 5 µM
